Where do these numbers come from? They come from patent US20080171732A1.

- ASSAY_SYSTEM: P2Y12 receptor (Homo sapiens, UniProt Q9H244)
- Construct: expressed in transfected cells; host or cells: CHO cells (membranes)
- Sequence (Q9H244 whole entry): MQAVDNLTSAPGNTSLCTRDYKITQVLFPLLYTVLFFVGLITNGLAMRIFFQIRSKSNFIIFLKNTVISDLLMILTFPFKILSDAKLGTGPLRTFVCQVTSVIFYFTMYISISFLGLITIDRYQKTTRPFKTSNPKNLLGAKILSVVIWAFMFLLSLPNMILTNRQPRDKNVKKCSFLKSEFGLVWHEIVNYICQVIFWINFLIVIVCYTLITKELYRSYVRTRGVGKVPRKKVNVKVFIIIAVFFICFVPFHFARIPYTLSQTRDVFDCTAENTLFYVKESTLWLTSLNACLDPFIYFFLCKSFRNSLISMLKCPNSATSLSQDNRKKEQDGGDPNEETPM
- ASSAY_NAME: Functional inhibition of 2-Me-S-ADP induced P2Y12 signalling (35S-GTPγS, cell membranes from P2Y12 transfected CHO-cells)
- Assay type: biochemical
- CONDITION_DETAILS: EC80 concentration of agonist 2-methyl-thio-adenosine diphosphate, 30° C., 45 min
VALUE_TYPE: IC50 (µM)
# output: bare number, implied unit µM

CCCC(=O)c1cc(C#N)c(N2CCC(C(=O)NS(=O)(=O)Cc3ccc(Cl)cc3)CC2)nc1OC [Example 52] = 0.055
CCOC(=O)c1cc(C#N)c(N2CCC(C(=O)NS(=O)(=O)Cc3ccccc3)CC2)nc1Cn1cncn1 [Example 47] = 0.077
CCOC(=O)c1cc(F)c(N2CCC(C(=O)NS(=O)(=O)Cc3ccccc3)CC2)nc1Cl [Example 46] = 0.048

Record CCOC(=O)c1cc(C#N)c(N2CCC(C(=O)NS(=O)(=O)Cc3ccc(Cl)cc3)CC2)nc1OC [Example 12] , field IC50: 0.009

Record CCOC(=O)c1cc(C#N)c(N2CCC(C(=O)NS(=O)(=O)Cc3ccccc3)CC2)nc1Cn1ccnc1 [Example 49] , field IC50: 0.073

Record CCOC(=O)c1cc(Cl)c(N2CCC(C(=O)NS(=O)(=O)Cc3ccccc3)CC2)nc1SC [Example 54] , field IC50: 0.039

---

- ASSAY_SYSTEM: P2Y12 receptor (Homo sapiens)
- Construct: expressed in transfected cells; host or cells: CHO cells (membranes)
- ASSAY_NAME: Functional inhibition of 2-Me-S-ADP induced P2Y12 signalling (35S-GTPγS, cell membranes from P2Y12 transfected CHO-cells)
- Type: biochemical
- CONDITION_DETAILS: EC80 concentration of agonist 2-methyl-thio-adenosine diphosphate, 30° C., 45 min
- Description: Functional inhibition of-the P2Y12 receptor can be measured by in vitro assays using cell membranes from P2Y12 transfected CHO-cells, the methodology is indicated below. Functional inhibition of 2-Me-S-ADP induced P2Y12 signalling: 5 μg of membranes were diluted in 200 μl of 200 mM NaCl, 1 mM MgCl2, 50 mM HEPES (pH 7.4), 0.01% BSA, 30μg/ml saponin and 10 μM GDP. […]
Threshold 0.03 µM: IC50 strictly smaller gives class 1, otherwise class 0.

CCOC(=O)c1cc(C#N)c(N2CCC(C(=O)NS(=O)(=O)Cc3ccccc3)CC2)nc1OCC = class 1
CCOC(=O)c1cc(C#N)c(N2CC(C(=O)NS(=O)(=O)Cc3ccccc3)C2)nc1CO = class 0
CCOC(=O)c1cc(C#N)c(N2CCC(C(=O)NS(=O)(=O)Cc3ccccc3)CC2)nc1C#N = class 1

From here, focus on the item given below.
Take the compound CCOC(=O)c1cc(C#N)c(N2CC(C(=O)NS(=O)(=O)Cc3ccc(C(F)(F)F)cc3)C2)nc1OC and say whether its IC50 is less than 0.03 µM. class 1

---

- ASSAY_SYSTEM: P2Y12 receptor (Homo sapiens)
- Construct: expressed in transfected cells; host or cells: CHO cells (membranes)
- ASSAY_NAME: Functional inhibition of 2-Me-S-ADP induced P2Y12 signalling (35S-GTPγS, cell membranes from P2Y12 transfected CHO-cells)
- Type: biochemical
- CONDITION_DETAILS: EC80 concentration of agonist 2-methyl-thio-adenosine diphosphate, 30° C., 45 min
VALUE_TYPE: IC50 (µM)
# output: bare number, implied unit µM

CCOC(=O)c1cc(C#N)c(N2CCC(C(=O)NS(=O)(=O)Cc3cccc(F)c3F)CC2)nc1OC [Example 19] = 0.031
CCOC(=O)c1cc(C#N)c(N2CC(C(=O)NS(=O)(=O)Cc3ccccc3Cl)C2)nc1OC [Example 22] = 0.012
CCOC(=O)c1cc(C#N)c(N2CC(C(=O)NS(=O)(=O)Cc3cccc(F)c3F)C2)nc1OC [Example 32] = 0.083
CCOC(=O)c1cc(C#N)c(N2CC(C(=O)NS(=O)(=O)Cc3ccc(F)cc3F)C2)nc1OCC [Example 41] = 0.087
CCOCc1nc(N2CCC(C(=O)NS(=O)(=O)Cc3ccccc3)CC2)c(C#N)cc1C(=O)OCC [Example 34] = 0.034

Record COc1nc(N2CCC(C(=O)NS(=O)(=O)Cc3ccc(F)cc3)CC2)c(C#N)cc1C(=O)OC(C)C [Example 56] , field IC50: 0.025

Record CCOC(=O)c1cc(C#N)c(N2CC(C(=O)NS(=O)(=O)Cc3ccc(F)cc3Cl)C2)nc1OC [Example 30] , field IC50: 0.009

Record CCOC(=O)c1cc(C#N)c(N2CCC(C(=O)NS(=O)(=O)Cc3ccccc3F)CC2)nc1OC [Example 8] , field IC50: 0.01
